Task for the reader: assign each of the following variants its reported protein stability index.
B1: BRF1 (parent)
chain: CTACGSVLEDNIIVSEVQFVESSG

- Variants of: B1
- Method Notes: protein stability index of a GFP-peptide fusion (GPS, HEK-293T) (PSI 1-6); higher = more stable;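 further: lentivirally expressed fusions sorted by FACS into six bins by GFP to DsRed ratio, PSI derived from sequencing read proportions per bin multiplied by bin number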
- Condition Label: c terminus: a fixed tail appended
Just the number, please, no unit after it.

Qu. Field request: protein stability index | item: CTACGSVLEDNEIVSEVQFVESSG
Ans. 4

Qu. I would be grateful if you could share the reported protein stability index for CRACGSVLEDNIIVSEVQFVESSG .
Ans. 3.17

Qu. Which protein stability index value is on record for CTACGSVLEDAIIVSEVQFVESSG ?
Ans. 1.54

Qu. I'd like to know its protein stability index. The variant in question is CMACGSVLEDNIIVSEVQFVESSG
Ans. 2.78

Qu. # lookup: protein stability index of CTACGSVLERNIIVSEVQFVESSG
Ans. 3.89

Qu. Which protein stability index value is on record for CTICGSVLEDNIIVSEVQFVESSG ?
Ans. 2.06

Qu. Name the reported protein stability index value associated with the variant CTACGSVLEQNIIVSEVQFVESSG
Ans. 2.14

Qu. For the variant CTACGSVLEDNIIVSYVQFVESSG , what protein stability index is on record?
Ans. 3.77

Qu. For CTACGSVLEDVIIVSEVQFVESSG , what is its reported protein stability index?
Ans. 1.96

Qu. Using the record for CTACGSVLEDTIIVSEVQFVESSG , report its protein stability index.
Ans. 2.44

Qu. I would be grateful if you could share the reported protein stability index for CTACGSVLEDNIIVSEVQFVSSSG .
Ans. 2.54

Qu. For the variant shown here, LTACGSVLEDNIIVSEVQFVESSG , give the reported protein stability index.
Ans. 3.56

Qu. protein stability index for CKACGSVLEDNIIVSEVQFVESSG ?
Ans. 3.48

Qu. For the variant shown here, CTACGSVLEDNIIVSHVQFVESSG , give the reported protein stability index.
Ans. 3.22

Qu. # lookup: protein stability index of CTACGSVLEDNIIVSEVQFVESLG
Ans. 3.03

Qu. Entry CTACGSVLTDNIIVSEVQFVESSG : reported protein stability index = ?
Ans. 2.55

Qu. Would you kindly share the measured protein stability index for CTACGSVEEDNIIVSEVQFVESSG ?
Ans. 3.68

Qu. Please give the measured protein stability index for this variant: CTACGSVLEDNIIVGEVQFVESSG
Ans. 2.92

Qu. Query: protein stability index; subject: CTACGSVLEDNIIVSEVQFVDSSG
Ans. 3.19
